# ASSAY_NAME: Pharmacokinetic analysis of SYN120 tablets, single oral dose (Example 8)
# Assay type: in vivo, human
# EXPERIMENTAL_SETUP: human, plasma; single oral dose 10 mg, Cohort B; geometric mean
OBSERVED_PROPERTY: Cmax (ng/mL)

> print(dat)
                                   compound   unit  assay.result
1  NC(=O)NC[C@@H]1CCCc2cc(S(=O)(=O)c3cccc(F)c3)ccc21 [SYN120]  ng/mL          48.7

----------
# ASSAY_NAME: Pharmacokinetic analysis of SYN120 tablets, single oral dose (Example 8)
# Assay type: in vivo, human
# EXPERIMENTAL_SETUP: human, plasma, po, 30 mg, single oral dose 30 mg, Cohort C; geometric mean; read-out: AUC0-t
OBSERVED_PROPERTY: AUC(0-t) (ng·h/mL)

> print(dat)
                                   molecule     unit  assay.result
1  NC(=O)NC[C@@H]1CCCc2cc(S(=O)(=O)c3cccc(F)c3)ccc21 [SYN120]  ng·h/mL          1750

----------
# ASSAY_NAME: Pharmacokinetic analysis of SYN120 tablets, multiple dose once daily (Example 9)
# Format: in vivo, human
# EXPERIMENTAL_SETUP: both sexes, human, plasma, oral, 100 mg, Day 14, 100 mg QD; geometric mean
OBSERVED_PROPERTY: Cmax (ng/mL)

> print(dat)
                                   compound  assay.result
1  NC(=O)NC[C@@H]1CCCc2cc(S(=O)(=O)c3cccc(F)c3)ccc21 [SYN120]          1240

----------
# ASSAY_NAME: Pharmacokinetic analysis of SYN120 tablets, single oral dose (Example 8)
# Type: in vivo, human
# EXPERIMENTAL_SETUP: female, human, plasma, oral, 100 mg, 100 mg single dose, females; arithmetic mean; read-out: AUC0-t
OBSERVED_PROPERTY: AUC(0-t)

> print(dat)
                                   molecule  observed.property  assay.result
1  NC(=O)NC[C@@H]1CCCc2cc(S(=O)(=O)c3cccc(F)c3)ccc21 [SYN120]           AUC(0-t)  5960 ng·h/mL

----------
# ASSAY_NAME: Pharmacokinetic analysis of SYN120 tablets, multiple dose once daily (Example 9)
# Format: in vivo, human
# EXPERIMENTAL_SETUP: both sexes, human, plasma, oral, 300 mg, Day 14, 300 mg QD; geometric mean; read-out: Cmin
OBSERVED_PROPERTY: concentration at 14 day (ng/mL)

> print(dat)
                                   compound  assay.result
1  NC(=O)NC[C@@H]1CCCc2cc(S(=O)(=O)c3cccc(F)c3)ccc21 [SYN120]           357

----------
# ASSAY_NAME: Pharmacokinetic analysis of SYN120 tablets, single oral dose (Example 8)
# Format: in vivo, human
# EXPERIMENTAL_SETUP: human, plasma; single oral dose 2 mg, Cohort A; median; read-out: Tmax
OBSERVED_PROPERTY: Tmax (h)

> print(dat)
                                   molecule  unit  assay.result
1  NC(=O)NC[C@@H]1CCCc2cc(S(=O)(=O)c3cccc(F)c3)ccc21 [SYN120]     h          2.02

----------
# ASSAY_NAME: Pharmacokinetic analysis of SYN120 tablets, single oral dose (Example 8)
# Format: in vivo, human
# EXPERIMENTAL_SETUP: female, human, plasma; single oral dose 100 mg (females), Cohort E; median; read-out: Tmax
# Method: Pharmacokinetic (PK) analysis was performed on 42 subjects (36 males; 6 females) who received SYN120 oral tablets. In this study, subjects received a single oral dose of SYN120 at one of the following doses: 2 mg; 10 mg; 30 mg; 100 mg; 300 mg; and 600 mg. The SYN120 oral tablets used in this study were formulated for immediate release at tablet strengths of 2 mg, 10 mg, and 50 mg. […]
OBSERVED_PROPERTY: Tmax

> print(dat)
                                   compound  observed.property  assay.result
1  NC(=O)NC[C@@H]1CCCc2cc(S(=O)(=O)c3cccc(F)c3)ccc21 [SYN120]               Tmax        2.51 h

----------
# ASSAY_NAME: Pharmacokinetic analysis of SYN120 tablets, single oral dose (Example 8)
# Type: in vivo, human
# EXPERIMENTAL_SETUP: male, human, plasma, oral, 100 mg, 100 mg single dose, males; arithmetic mean; read-out: AUC0-t
OBSERVED_PROPERTY: AUC(0-t) (ng·h/mL)

> print(dat)
                                   molecule  assay.result
1  NC(=O)NC[C@@H]1CCCc2cc(S(=O)(=O)c3cccc(F)c3)ccc21 [SYN120]          7980

----------
# ASSAY_NAME: Pharmacokinetic analysis of SYN120 tablets, multiple dose once daily (Example 9)
# Assay type: in vivo, human
# EXPERIMENTAL_SETUP: both sexes, human, plasma, oral, Study Day 1, each dose group; read-out: median Tmax
OBSERVED_PROPERTY: Tmax (h)

> print(dat)
                                   compound  assay.result
1  NC(=O)NC[C@@H]1CCCc2cc(S(=O)(=O)c3cccc(F)c3)ccc21 [SYN120]             4

----------
# ASSAY_NAME: Pharmacokinetic analysis of SYN120 tablets, multiple dose once daily (Example 9)
# Format: in vivo, human
# EXPERIMENTAL_SETUP: both sexes, human, plasma and urine, oral, 600 mg, Day 14, 600 mg QD; arithmetic mean; read-out: 0-24 Clr
OBSERVED_PROPERTY: CL renal

> print(dat)
                                   compound  assay.result
1  NC(=O)NC[C@@H]1CCCc2cc(S(=O)(=O)c3cccc(F)c3)ccc21 [SYN120]   1.31 mL/min

----------
# ASSAY_NAME: Pharmacokinetic analysis of SYN120 tablets, multiple dose once daily (Example 9)
# Format: in vivo, human
# EXPERIMENTAL_SETUP: both sexes, human, plasma and urine, oral, 100 mg, Day 1, 100 mg QD; arithmetic mean; read-out: 0-24 Clr
OBSERVED_PROPERTY: CL renal (mL/min)

> print(dat)
                                   compound    unit  assay.result
1  NC(=O)NC[C@@H]1CCCc2cc(S(=O)(=O)c3cccc(F)c3)ccc21 [SYN120]  mL/min          1.25

----------
# ASSAY_NAME: Pharmacokinetic analysis of SYN120 tablets, single oral dose (Example 8)
# Assay type: in vivo, human
# EXPERIMENTAL_SETUP: human, plasma; single oral dose 300 mg, Cohort F; geometric mean
# Procedure: Pharmacokinetic (PK) analysis was performed on 42 subjects (36 males; 6 females) who received SYN120 oral tablets. In this study, subjects received a single oral dose of SYN120 at one of the following doses: 2 mg; 10 mg; 30 mg; 100 mg; 300 mg; and 600 mg. The SYN120 oral tablets used in this study were formulated for immediate release at tablet strengths of 2 mg, 10 mg, and 50 mg. […]
OBSERVED_PROPERTY: AUC(0-inf) (ng·h/mL)

> print(dat)
                                   molecule  assay.result
1  NC(=O)NC[C@@H]1CCCc2cc(S(=O)(=O)c3cccc(F)c3)ccc21 [SYN120]         27400

----------
# ASSAY_NAME: Pharmacokinetic analysis of SYN120 tablets, single oral dose (Example 8)
# Type: in vivo, human
# EXPERIMENTAL_SETUP: human, plasma, po, 300 mg, single oral dose 300 mg, Cohort F; geometric mean; read-out: AUC0-24
# Method: Pharmacokinetic (PK) analysis was performed on 42 subjects (36 males; 6 females) who received SYN120 oral tablets. In this study, subjects received a single oral dose of SYN120 at one of the following doses: 2 mg; 10 mg; 30 mg; 100 mg; 300 mg; and 600 mg. The SYN120 oral tablets used in this study were formulated for immediate release at tablet strengths of 2 mg, 10 mg, and 50 mg. […]
OBSERVED_PROPERTY: AUC(0-t) (ng·h/mL)

> print(dat)
                                   compound  observed.property     unit  assay.result
1  NC(=O)NC[C@@H]1CCCc2cc(S(=O)(=O)c3cccc(F)c3)ccc21 [SYN120]           AUC(0-t)  ng·h/mL         21300
